System: EPHB3
Conditions: concentration: 1 μM, replicates: in singlicate; n = 1
measurement name: %Inh (%)
Enter your answer as a number in %; do not include the unit.

Below: 3 molecules and their reported %Inh.
>  <molecule>
COc1cc2ncnc(Nc3ccc(OCc4ccccc4Br)c(Cl)c3)c2cc1OC.Cl

>  <measured on>
EPHB3

>  <%Inh / %>
22

$$$$
>  <molecule>
O=C(Nc1n[nH]c2nc(-c3ccco3)c(Br)cc12)c1ccc(CN2CCCC2)cc1.O=C(O)[C@H](O)[C@@H](O)C(=O)O

>  <measured on>
EPHB3

>  <%Inh / %>
0

$$$$
>  <molecule>
COc1ccc(Nc2nccc(N3CCC(NC(=O)Nc4ccc5c(c4)OCO5)C3)n2)cc1 (stereo not drawn)

>  <measured on>
EPHB3;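 note: KINOMEscan kinase panel screen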

>  <%Inh / %>
24

$$$$

Query string: Reported %Inh for `Cn1ccc2ncnc(Nc3ccc(Oc4cccc(Cl)c4)c(Cl)c3)c21` : what is it?
Result string: 0

Query string: Reported %Inh for `CC(=O)Nc1n[nH]c2ncc(-c3ccccc3)cc12` : what is it?
Result string: 16

Query string: Reported %Inh for `CC(C)N1CCC(n2cnc(-c3ccc(F)cc3)c2-c2ccnc(N)n2)CC1` : what is it?
Result string: 0

Query string: Reported %Inh for `Oc1ccc2ncnc(Nc3ccc(OCc4ccccc4)cc3)c2c1` : what is it?
Result string: 12

Query string: Reported %Inh for `Cl.c1ccc(Cn2ccc3cc(Nc4ncnc5ccccc45)ccc32)cc1` : what is it?
Result string: 4

Query string: Reported %Inh for `Cl.c1ccc(Cn2ncc3cc(Nc4ncnc5ccccc45)ccc32)cc1` : what is it?
Result string: 0

Measured values drawn from paper PMC5540273 for this set.
